Reference for the values: ChEMBL document CHEMBL1141686

Molecular target: Peroxisome proliferator-activated receptor alpha (Homo sapiens)
Sequence (Q07869 whole entry): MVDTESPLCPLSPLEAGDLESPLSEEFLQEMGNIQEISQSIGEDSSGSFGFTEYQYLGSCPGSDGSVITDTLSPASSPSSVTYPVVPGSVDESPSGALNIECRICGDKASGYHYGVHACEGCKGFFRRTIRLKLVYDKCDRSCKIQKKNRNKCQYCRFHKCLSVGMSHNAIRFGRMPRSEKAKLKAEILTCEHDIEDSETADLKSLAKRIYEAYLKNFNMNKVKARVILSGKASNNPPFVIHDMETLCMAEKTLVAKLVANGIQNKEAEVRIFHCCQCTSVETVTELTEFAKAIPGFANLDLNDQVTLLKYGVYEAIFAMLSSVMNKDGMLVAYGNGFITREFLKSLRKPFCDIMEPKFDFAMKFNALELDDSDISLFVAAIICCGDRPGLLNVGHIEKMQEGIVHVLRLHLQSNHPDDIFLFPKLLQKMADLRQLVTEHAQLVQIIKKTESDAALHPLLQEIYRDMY
The entries below are paired with their reported IC50.

{"columns": ["compound-structure", "result"],
 "data": [
  ["COc1ccc2ccn(S(=O)(=O)c3cccc(C(=O)Nc4ccc(Cl)cc4C(=O)O)c3)c2c1", "1580 nM"],
  ["Cc1ccc(NC(=O)c2cccc(S(=O)(=O)n3ccc4ccc(Cl)cc43)c2)c(C(=O)O)c1", "3160 nM"],
  ["O=C(O)COc1cccc2c1CCN(S(=O)(=O)c1cccc(C(=O)Nc3ccc(Cl)cc3C(=O)O)c1)C2", "5010 nM"],
  ["COc1cccc2c1ccn2S(=O)(=O)c1cccc(C(=O)Nc2ccc(C)cc2C(=O)O)c1", "1260 nM"],
  ["Cc1ccc(NC(=O)c2cccc(S(=O)(=O)n3ccc4cc(C)ccc43)c2)c(C(=O)O)c1", "1000 nM"],
  ["COc1ccc2c(ccn2S(=O)(=O)c2cccc(C(=O)Nc3ccc(C)cc3C(=O)O)c2)c1", "7940 nM"]
]}

For the molecule Cc1cccc(NC(=O)c2cccc(S(=O)(=O)N3CCc4ccccc4C3)c2)c1C(=O)O , give its reported IC50. > 10000 nM

For the molecule Cc1ccc(NC(=O)c2cccc(S(=O)(=O)n3ccc4c(C)cccc43)c2)c(C(=O)O)c1 , give its reported IC50. 1000 nM

For the molecule COc1cccc2ccn(S(=O)(=O)c3cccc(C(=O)Nc4ccc(C)cc4C(=O)O)c3)c12 , give its reported IC50. > 10000 nM

====

Target: Peroxisome proliferator-activated receptor alpha (Homo sapiens)
Sequence (Q07869 whole entry): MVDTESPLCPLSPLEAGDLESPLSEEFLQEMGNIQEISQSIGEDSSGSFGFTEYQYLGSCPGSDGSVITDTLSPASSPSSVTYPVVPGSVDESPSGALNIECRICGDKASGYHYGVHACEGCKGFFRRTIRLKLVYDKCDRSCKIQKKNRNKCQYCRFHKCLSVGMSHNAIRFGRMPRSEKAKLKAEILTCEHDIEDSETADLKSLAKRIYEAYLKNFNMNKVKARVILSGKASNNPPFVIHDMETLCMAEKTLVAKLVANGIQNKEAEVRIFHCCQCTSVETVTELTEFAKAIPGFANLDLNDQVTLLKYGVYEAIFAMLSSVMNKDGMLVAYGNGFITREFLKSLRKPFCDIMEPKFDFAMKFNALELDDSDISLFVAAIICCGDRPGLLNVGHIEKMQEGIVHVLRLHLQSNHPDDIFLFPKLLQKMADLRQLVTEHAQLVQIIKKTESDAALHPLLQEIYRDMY
assay-endpoint: IC50 (µM)
Please respond with the number in µM and leave the unit unwritten.

For the compound COc1cccc2c1ccn2S(=O)(=O)c1cccc(C(=O)Nc2ccc(Cl)cc2C(=O)O)c1 , give its reported IC50. 0.794

For the compound Cc1ccc(NC(=O)c2cccc(S(=O)(=O)n3ccc4cccc(Cl)c43)c2)c(C(=O)O)c1 , give its reported IC50. 3.16

For the compound Cc1ccc(NC(=O)c2cccc(S(=O)(=O)n3ccc4cccc(C)c43)c2)c(C(=O)O)c1 , give its reported IC50. 1.58

For the compound COc1ccc2c(ccn2S(=O)(=O)c2cccc(C(=O)Nc3ccc(Cl)cc3C(=O)O)c2)c1 , give its reported IC50. 3.16

For the compound COc1ccc2ccn(S(=O)(=O)c3cccc(C(=O)Nc4ccc(C)cc4C(=O)O)c3)c2c1 , give its reported IC50. 3.98
